biological target: T1, VLP2 (virus-like particles of AAV2) (AAV2, UniProt P03135 1-735; P03135 1-598; P03135 1-533); experiment: ELISA on VLP2; binding after pH 3.0 51.1°C 15 min / untreated;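 further: binding of the heat-treated AAV-binding protein to VLP2, expressed as a percentage of the binding of the same protein without heating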
T1 construct: Empty AAV2 capsid; background says about 60 protein molecules, VP1:VP2:VP3 = 1:1:10; Immobilised on the ELISA plate
T1 sequence (P03135 whole entry, chain 1 of 3): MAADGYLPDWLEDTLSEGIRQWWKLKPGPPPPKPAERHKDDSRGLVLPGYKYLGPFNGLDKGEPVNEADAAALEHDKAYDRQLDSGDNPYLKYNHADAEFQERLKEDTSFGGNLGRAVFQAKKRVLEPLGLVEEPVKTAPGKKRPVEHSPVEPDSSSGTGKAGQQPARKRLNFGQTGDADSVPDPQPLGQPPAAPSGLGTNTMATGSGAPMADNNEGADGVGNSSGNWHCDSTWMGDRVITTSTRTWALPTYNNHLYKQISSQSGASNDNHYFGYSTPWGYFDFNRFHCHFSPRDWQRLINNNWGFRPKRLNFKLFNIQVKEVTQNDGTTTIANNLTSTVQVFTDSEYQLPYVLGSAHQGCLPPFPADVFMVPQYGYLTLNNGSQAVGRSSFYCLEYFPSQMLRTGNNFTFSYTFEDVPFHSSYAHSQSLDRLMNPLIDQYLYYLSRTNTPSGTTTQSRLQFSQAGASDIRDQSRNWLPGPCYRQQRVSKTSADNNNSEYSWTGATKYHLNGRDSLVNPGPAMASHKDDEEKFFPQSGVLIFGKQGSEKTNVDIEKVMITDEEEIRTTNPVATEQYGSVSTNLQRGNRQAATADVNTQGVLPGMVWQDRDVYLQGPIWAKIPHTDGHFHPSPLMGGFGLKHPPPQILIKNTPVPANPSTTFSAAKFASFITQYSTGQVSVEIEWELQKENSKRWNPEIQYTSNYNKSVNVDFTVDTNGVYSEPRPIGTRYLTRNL
T1 sequence (P03135 139-735, tags left off, chain 2 of 3): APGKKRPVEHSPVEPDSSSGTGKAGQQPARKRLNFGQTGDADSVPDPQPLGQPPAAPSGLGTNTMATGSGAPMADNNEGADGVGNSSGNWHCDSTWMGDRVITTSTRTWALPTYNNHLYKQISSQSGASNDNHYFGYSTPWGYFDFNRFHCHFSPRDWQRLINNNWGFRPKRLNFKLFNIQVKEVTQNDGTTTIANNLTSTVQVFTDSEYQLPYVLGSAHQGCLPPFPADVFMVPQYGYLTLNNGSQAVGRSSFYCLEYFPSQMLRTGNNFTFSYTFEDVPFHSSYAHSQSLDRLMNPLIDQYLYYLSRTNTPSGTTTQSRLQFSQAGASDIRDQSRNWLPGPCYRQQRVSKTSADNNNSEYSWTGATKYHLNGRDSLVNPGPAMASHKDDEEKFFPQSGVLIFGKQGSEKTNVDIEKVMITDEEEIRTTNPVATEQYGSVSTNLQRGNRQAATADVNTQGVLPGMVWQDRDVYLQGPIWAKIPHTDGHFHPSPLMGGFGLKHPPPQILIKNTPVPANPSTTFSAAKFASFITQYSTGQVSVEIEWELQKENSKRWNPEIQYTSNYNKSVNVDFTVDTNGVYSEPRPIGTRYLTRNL
T1 sequence (P03135 203-735, chain 3 of 3): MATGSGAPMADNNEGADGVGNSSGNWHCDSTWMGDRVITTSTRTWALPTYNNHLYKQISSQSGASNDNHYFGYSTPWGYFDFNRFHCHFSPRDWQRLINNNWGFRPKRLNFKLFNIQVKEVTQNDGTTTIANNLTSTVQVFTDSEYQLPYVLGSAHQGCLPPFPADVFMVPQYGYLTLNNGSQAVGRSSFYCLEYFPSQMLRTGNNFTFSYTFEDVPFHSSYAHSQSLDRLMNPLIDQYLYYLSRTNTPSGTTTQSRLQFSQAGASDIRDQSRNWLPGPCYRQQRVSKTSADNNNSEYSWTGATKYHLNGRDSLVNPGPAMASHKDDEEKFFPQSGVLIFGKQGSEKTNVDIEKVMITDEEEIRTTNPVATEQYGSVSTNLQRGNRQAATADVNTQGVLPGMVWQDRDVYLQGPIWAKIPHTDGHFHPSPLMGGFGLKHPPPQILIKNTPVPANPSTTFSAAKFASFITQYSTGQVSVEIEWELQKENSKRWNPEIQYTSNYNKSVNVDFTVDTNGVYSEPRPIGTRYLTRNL
Exercise: state measured Residual activity [%] for each of the binders provided.
# number only, unit % dropped from output

In plain terms, AAV-binding protein No. 72 (AVR2 + Val394Ala) (receptor) MGSAGESVQITLPKNEVQLNAYVLQEPPKGETCTYDWQLITHPRDYSGEMEGKHSQILKLSKLTPGLYEFKVIVEGQNAHSEGYANVTVKPEPRKNRPPIAIVSPQFQEISLPTTSTVIDGSQSTDDDKIVQYHWEELKGPLREEKISEDTAILKLSKLVPGNYTFSLTVVDSDGATNSTTANLTVNKAVDHHHHHH has a documented Residual activity [%] of 32

In plain terms, AAV-binding protein No. 74 (AVR2 + Ser476Gly) (receptor) MGSAGESVQITLPKNEVQLNAYVLQEPPKGETCTYDWQLITHPRDYSGEMEGKHSQILKLSKLTPGLYEFKVIVEGQNAHSEGYVNVTVKPEPRKNRPPIAIVSPQFQEISLPTTSTVIDGSQSTDDDKIVQYHWEELKGPLREEKISEDTAILKLSKLVPGNYTFGLTVVDSDGATNSTTANLTVNKAVDHHHHHH has a documented Residual activity [%] of 63.4

In plain terms, AAV-binding protein No. 83 (AVR2 + Ile319Ser, Thr320Ile, Lys399Glu) (receptor) MGSAGESVQSILPKNEVQLNAYVLQEPPKGETCTYDWQLITHPRDYSGEMEGKHSQILKLSKLTPGLYEFKVIVEGQNAHSEGYVNVTVEPEPRKNRPPIAIVSPQFQEISLPTTSTVIDGSQSTDDDKIVQYHWEELKGPLREEKISEDTAILKLSKLVPGNYTFSLTVVDSDGATNSTTANLTVNKAVDHHHHHH has a documented Residual activity [%] of 70.2

In plain terms, AAV-binding protein No. 67 (AVR2 + Pro337Gln) (receptor) MGSAGESVQITLPKNEVQLNAYVLQEPQKGETCTYDWQLITHPRDYSGEMEGKHSQILKLSKLTPGLYEFKVIVEGQNAHSEGYVNVTVKPEPRKNRPPIAIVSPQFQEISLPTTSTVIDGSQSTDDDKIVQYHWEELKGPLREEKISEDTAILKLSKLVPGNYTFSLTVVDSDGATNSTTANLTVNKAVDHHHHHH has a documented Residual activity [%] of 45.6
